# Tested on: Pseudomonas aeruginosa
# TEST SUMMARY: Minimum inhibitory concentration against Pseudomonas aeruginosa
# Type: functional
Property: MIC; scope: individual compounds

Answered cases to consult:
>>> obs_value("O=C(O)c1cn(C2CC2)c2cc(N3CCN(c4nnc(S(=O)(=O)Cc5ccccc5)s4)CC3)c(F)cc2c1=O")
"> 64 µg/mL"
>>> obs_value("CCn1cc(C(=O)O)c(=O)c2cc(F)c(N3CCN(c4nnc(SCc5ccccc5[N+](=O)[O-])s4)CC3)cc21")
"> 64 µg/mL"
>>> obs_value("CCn1cc(C(=O)O)c(=O)c2cc(F)c(N3CCN(c4nnc(SCc5cccc([N+](=O)[O-])c5)s4)CC3)cc21")
"> 64 µg/mL"
>>> obs_value("CCn1cc(C(=O)O)c(=O)c2cc(F)c(N3CCN(c4nnc(S(=O)(=O)Cc5ccccc5)s4)CC3)cc21")
"> 64 µg/mL"
>>> obs_value("CCn1cc(C(=O)O)c(=O)c2cc(F)c(N3CCN(c4nnc(SCc5ccc([N+](=O)[O-])cc5)s4)CC3)cc21")
"> 64 µg/mL"

q: Suppose we examine the compound "O=C(O)c1cn(C2CC2)c2cc(N3CCN(c4nnc(SCc5ccccc5)s4)CC3)c(F)cc2c1=O" ; what MIC value has been reported?
a: > 64 µg/mL

q: Suppose we examine the compound "CCn1cc(C(=O)O)c(=O)c2cc(F)c(N3CCN(c4nnc(SCc5ccccc5)s4)CC3)cc21" ; what MIC value has been reported?
a: > 64 µg/mL

q: Suppose we examine the compound "O=C(O)c1cn(C2CC2)c2cc(N3CCN(c4nnc(S(=O)(=O)Cc5ccccc5[N+](=O)[O-])s4)CC3)c(F)cc2c1=O" ; what MIC value has been reported?
a: > 32 µg/mL

q: Suppose we examine the compound CCn1cc(C(=O)O)c(=O)c2cc(F)c(N3CCNCC3)cc21 [NORFLOXACIN] ; what MIC value has been reported?
a: 2 µg/mL

q: Suppose we examine the compound "CCn1cc(C(=O)O)c(=O)c2cc(F)c(N3CCN(c4nnc(S(=O)(=O)Cc5cccc([N+](=O)[O-])c5)s4)CC3)cc21" ; what MIC value has been reported?
a: > 64 µg/mL

* * *

# Tested on: Pseudomonas aeruginosa
# TEST SUMMARY: Minimum inhibitory concentration against Pseudomonas aeruginosa
# Type: functional
Property: MIC; scope: individual compounds

Answered cases to consult:
>>> obs_value("O=C(O)c1cn(C2CC2)c2cc(N3CCN(c4nnc(S(=O)(=O)Cc5ccc([N+](=O)[O-])cc5)s4)CC3)c(F)cc2c1=O")
"> 64 µg/mL"
>>> obs_value("O=C(O)c1cn(C2CC2)c2cc(N3CCN(c4nnc(SCc5ccccc5[N+](=O)[O-])s4)CC3)c(F)cc2c1=O")
"64 µg/mL"
>>> obs_value("O=C(O)c1cn(C2CC2)c2cc(N3CCN(c4nnc(S(=O)(=O)Cc5cccc([N+](=O)[O-])c5)s4)CC3)c(F)cc2c1=O")
"> 64 µg/mL"
>>> obs_value("O=C(O)c1cn(C2CC2)c2cc(N3CCN(c4nnc(SCc5ccc([N+](=O)[O-])cc5)s4)CC3)c(F)cc2c1=O")
"32 µg/mL"
>>> obs_value("CCn1cc(C(=O)O)c(=O)c2cc(F)c(N3CCN(c4nnc(S(=O)(=O)Cc5ccccc5[N+](=O)[O-])s4)CC3)cc21")
"> 64 µg/mL"
>>> obs_value("CCn1cc(C(=O)O)c(=O)c2cc(F)c(N3CCN(c4nnc(S(=O)(=O)Cc5ccc([N+](=O)[O-])cc5)s4)CC3)cc21")
"> 64 µg/mL"

Continue with the compound presented below.
q: Suppose we examine the compound "O=C(O)c1cn(C2CC2)c2cc(N3CCN(c4nnc(SCc5cccc([N+](=O)[O-])c5)s4)CC3)c(F)cc2c1=O" ; what MIC value has been reported?
a: 64 µg/mL
